measurement name: melting point

Q. Entry CN1CCN(c2ccc3cc(-c4cn5ccsc5n4)c(=O)oc3n2)CC1 [Cpd 54] has what melting point?
A. 268 to 272 °C

Q. Entry O=c1oc2nc(N3CCNCC3)ccc2cc1-c1nc2ccccc2s1 [Cpd 1] has what melting point?
A. 258 to 260 °C

Q. Entry Cc1ccn2cc(-c3cc4ccc(N5CCNCC5)nc4oc3=O)nc2c1.Cl [Cpd 29] has what melting point?
A. 240 to 244 °C

Q. Entry C[C@@H]1CN[C@@H](C)CN1c1ccc2cc(-c3nc4c(Cl)cccc4s3)c(=O)oc2n1 [Cpd 85] has what melting point?
A. 223 to 227 °C

Q. Entry CCN1CCN(c2ccc3cc(-c4cn5cc(C)cc(F)c5n4)c(=O)oc3n2)C[C@@H]1C [Cpd 137] has what melting point?
A. 239 to 243 °C

Q. Entry CCN1CCN(c2ccc3cc(-c4nc5ccccc5s4)c(=O)oc3n2)CC1 [Cpd 17] has what melting point?
A. 254 to 257 °C

Q. Entry Cc1ccc2nc(-c3cc4cnc(N5CCN(C)CC5)cc4oc3=O)cn2c1 [Cpd 34] has what melting point?
A. 264 to 268 °C

Q. Entry Cc1ccn2cc(-c3cc4ccc(N5CCN(C)CC5)nc4oc3=O)nc2c1 [Cpd 39] has what melting point?
A. 264 to 268 °C

Q. Entry C[C@@H]1CN(c2ccc3cc(-c4cn5ccccc5n4)c(=O)oc3n2)CCN1C [Cpd 82] has what melting point?
A. 216 to 219 °C

Q. Entry CCN1CCCN(c2ccc3cc(-c4cn5cc(C)ncc5n4)c(=O)oc3n2)CC1 [Cpd 142] has what melting point?
A. 217 to 221 °C

Q. Entry Cc1cn2cc(-c3cc4ccc(N5CCCNCC5)nc4oc3=O)nc2cn1.Cl [Cpd 104] has what melting point?
A. 267 to 269 °C

Q. Entry O=c1oc2nc(N3CCNCC3)ccc2cc1-c1cn2cccc(F)c2n1 [Cpd 108] has what melting point?
A. 231 to 235 °C

Q. Entry Cc1cc(F)c2nc(-c3cc4ccc(N5CCCNCC5)nc4oc3=O)cn2c1.Cl [Cpd 107] has what melting point?
A. 276 to 279 °C

Q. Entry Cc1cn2cc(-c3cc4ccc(N5C[C@@H](C)N[C@@H](C)C5)nc4oc3=O)nc2cn1 [Cpd 101] has what melting point?
A. 279 to 281 °C

Q. Entry Cc1ccn2nc(-c3cc4ccc(N5CCN(C)CC5)nc4oc3=O)cc2c1 [Cpd 53] has what melting point?
A. 264 to 268 °C

Q. Entry Cc1ccn2cc(-c3cc4ccc(N5CCN(C)C[C@@H]5C)nc4oc3=O)nc2c1 [Cpd 62] has what melting point?
A. 242 to 246 °C

Q. Entry Cc1ccn2cc(-c3cc4ccc(N5CCCN(C)CC5)nc4oc3=O)nc2c1 [Cpd 115] has what melting point?
A. 241 to 243 °C

Q. Entry CCN1CCCN(c2ccc3cc(-c4cn5cccnc5n4)c(=O)oc3n2)CC1 [Cpd 126] has what melting point?
A. 271 to 273 °C

Q. Entry Cc1ccn2cc(-c3cc4ccc(N5C[C@@H](C)N[C@@H](C)C5)nc4oc3=O)nc2c1 [Cpd 100] has what melting point?
A. 246 to 249 °C

Q. Entry C[C@@H]1CN(C)[C@@H](C)CN1c1ccc2cc(-c3cn4cccc(F)c4n3)c(=O)oc2n1 [Cpd 97] has what melting point?
A. 194 to 197 °C

Q. Entry Cl.O=c1oc2nc(N3CCCNCC3)ccc2cc1-c1cn2ccccc2n1 [Cpd 45] has what melting point?
A. 265 to 267 °C

Q. Entry O=c1oc2nc(N3CCN(CC(O)CO)CC3)ccc2cc1-c1nc2ccccc2s1 (stereo not drawn) [Cpd 26] has what melting point?
A. 236 to 239 °C

Q. Entry Cc1ccn2cc(-c3cc4ccc(N5C[C@H](C)N(C)C[C@H]5C)nc4oc3=O)nc2c1 [Cpd 96] has what melting point?
A. 114 to 117 °C

Q. Entry Cc1ccc2nc(-c3cc4ccc(N5CCNCC5)nc4oc3=O)cn2c1.Cl [Cpd 24] has what melting point?
A. 218 to 222 °C

Q. Entry CCN1CCCN(c2ccc3cc(-c4cn5cccc(F)c5n4)c(=O)oc3n2)CC1 [Cpd 139] has what melting point?
A. 189 to 191 °C

Q. Entry CCCN1CCN(c2ccc3cc(-c4nc5c(Cl)cccc5s4)c(=O)oc3n2)CC1 [Cpd 13] has what melting point?
A. 251 to 254 °C

Q. Entry C[C@@H]1CN(c2ccc3cc(-c4cn5cccc(Cl)c5n4)c(=O)oc3n2)C[C@H](C)N1 [Cpd 77] has what melting point?
A. 240 to 242 °C

Q. Entry Cc1ccc2nc(-c3cc4ccc(N5CCCN(C)CC5)nc4oc3=O)cn2c1 [Cpd 116] has what melting point?
A. 233 to 236 °C

Q. Entry C[C@@H]1CN(c2ccc3cc(-c4cn5cccnc5n4)c(=O)oc3n2)C[C@H](C)N1 [Cpd 78] has what melting point?
A. 255 to 258 °C

Q. Entry Cc1ccn2cc(-c3cc4ccc(N5CCCNCC5)nc4oc3=O)nc2c1 [Cpd 65] has what melting point?
A. 239 to 241 °C

Q. Entry Cc1cn2cc(-c3cc4ccc(N5CCCNCC5)nc4oc3=O)nc2c(C)n1.Cl [Cpd 89] has what melting point?
A. 273 to 276 °C

Q. Entry CCN1CCN(c2ccc3cc(-c4nc5c(Cl)cccc5s4)c(=O)oc3n2)CC1 [Cpd 12] has what melting point?
A. 266 to 269 °C

Q. Entry C[C@@H]1CN[C@@H](C)CN1c1ccc2cc(-c3cn4cccc(F)c4n3)c(=O)oc2n1 [Cpd 92] has what melting point?
A. 210 to 212 °C

Q. Entry CCN1[C@H](C)CN(c2ccc3cc(-c4cn5ccccc5n4)c(=O)oc3n2)C[C@@H]1C [Cpd 129] has what melting point?
A. 281 to 284 °C

Q. Entry CN1CCCN(c2ccc3cc(-c4cn5ccsc5n4)c(=O)oc3n2)CC1 [Cpd 114] has what melting point?
A. 224 to 226 °C

Q. Entry CCN1CCCN(c2ccc3cc(-c4cn5cc(C)cc(F)c5n4)c(=O)oc3n2)CC1 [Cpd 138] has what melting point?
A. 195 to 200 °C
